pIC50: −log10 of the molar value.
Literature pIC50 values, system: Cytochrome P450 3A4 (Homo sapiens, UniProt P08684).
readout: pIC50

Check out these entries, answers already filled in.
- compoundStructure: "Cc1c(N(C(=O)c2cc(-c3cc4c(cc3C(=O)N3Cc5ccccc5C[C@H]3C)CN(C(=O)Cc3ccc(OCCN5CCOCC5)cc3)CC4)n(C)c2C)c2ccc(O)cc2)cc(C#N)n1C"
  pIC50: 5.21
- compoundStructure: "O=c1[nH]cccc1-c1nc2c(c(OCCc3c[nH]c4ccccc34)n1)OCCN2"
  pIC50: 5.14

P: COc1ccccc1-c1cnccc1C(=O)Nc1nnc(OCc2ccc(C#N)cc2)s1
Q: COc1ccc(F)cc1-c1cnccc1C(=O)Nc1nnc(OCc2ccc(C#N)cc2)s1
Lower pIC50: P or Q ? Respond using the label that marks the chosen record.
P
